Attribution: patent US20230219962A1

- target_under_test: hTLR8 (Homo sapiens)
- experiment_summary: Human TLR8 Reporter Assay
- experimental_context: HEK-Blue hTLR8 cells, 16 hours, normalized to tl8-506 (1 μM) and DMSO
- Experimental: HEK-Blue™ hTLR8 cells (Invivogen, San Diego, Calif.) were maintained at 37° C./5% CO2/90% relative humidity in Dulbecco's Modified Eagle's Medium with 10% fetal bovine serum, 100 units/mL penicillin, 100 μg/mL streptomycin, 100 μg/mL normocin, 10 μg/mL blasticidin, and 100 μg/mL zeocin. HEK-Blue™ hTLR8 cells were maintained at 10-90% confluence and used before passage 20. […] Calculated % effects were fit using a 4-parameter algorithm, and EC50 was reported.
With a cut-off of 3 µM, any EC50 strictly below it is called Criterion met; any EC50 meeting it or above is called Criterion not met.

| compound | target_under_test | discrete_label |
| --- | --- | --- |
| CCCCNc1nc(N)nc2cn(Cc3ncccc3OC)nc12 [Compound 8] | hTLR8 (Homo sapiens) | Criterion met |
| CCCCNc1nc(N)nc2cn(Cc3c(OC)ccc(CN4C(=O)C=CC4=O)c3OC)nc12 [Compound 95] | hTLR8 (Homo sapiens) | Criterion not met |
| CCCCNc1nc(N)nc2cn(Cc3nnc(C)o3)nc12 [Compound 172] | hTLR8 (Homo sapiens) | Criterion not met |

Ask: In the record for CCCCNc1nc(N)nc2cn(Cc3cc(N4CCNCC4)ccc3OC)nc12 [Compound 59] , is EC50 less than 3 µM?
Reply: Criterion met

Ask: In the record for CCCCNc1nc(N)nc2cn(Cc3ccc(CN4CCN(C(=O)CCN5C(=O)C=CC5=O)CC4)cc3)nc12 [Compound 119] , is EC50 less than 3 µM?
Reply: Criterion not met

Ask: In the record for CCC[C@@H](CO)Nc1nc(N)nc2cn(Cc3ccc(N4CCN(C(=O)C5CCC(CN6C(=O)C=CC6=O)CC5)CC4)cc3OC)nc12 (some centres unmarked) [Compound 153] , is EC50 less than 3 µM?
Reply: Criterion not met

Ask: In the record for CCNc1nc(N)nc2cn(Cc3c(OC)cccc3OC)nc12 [Compound 44] , is EC50 less than 3 µM?
Reply: Criterion not met

Ask: In the record for CCC[C@@H](CO)Nc1nc(N)nc2cn(Cc3c(OC)cc(C(CN)N(C)CCC)cc3OC)nc12 (some centres unmarked) [Compound 223] , is EC50 less than 3 µM?
Reply: Criterion met

* * *

- target_under_test: hTLR8 (Homo sapiens)
- experiment_summary: Human TLR8 Reporter Assay
- experimental_context: HEK-Blue hTLR8 cells, 16 hours, normalized to tl8-506 (1 μM) and DMSO
With a cut-off of 1000 nM, any EC50 strictly below it is called T; any EC50 meeting it or above is called F.

| molecule | target_under_test | discrete_label |
| --- | --- | --- |
| CCC[C@H](C)Nc1nc(N)nc2cn(Cc3c(OC)cc(Br)cc3OC)nc12 | hTLR8 (Homo sapiens) | T |
| CCCCNc1nc(N)nc2cn(Cc3cc(CN4CC(CN)C4)ccc3OC)nc12 | hTLR8 (Homo sapiens) | T |
| CCCCNc1nc(N)nc2cn(Cc3ncccn3)nc12 | hTLR8 (Homo sapiens) | F |
| CCC[C@@H](CO)Nc1nc(N)nc2cn(Cc3c(OC)cc(C(C)N)cc3OC)nc12 (some centres unmarked) [Compound 224] | hTLR8 (Homo sapiens) | F |
| CCCCNc1nc(N)nc2cn(Cc3sc(C)nc3C)nc12 | hTLR8 (Homo sapiens) | F |
| CCCCNc1nc(N)nc2cn(Cc3ccc(CN4CCNCC4)cc3OC)nc12 [Compound 61] | hTLR8 (Homo sapiens) | T |
| CCCCNc1nc(N)nc2cn(Cc3c(OC)cc(CNC(=O)C4CCC(CN5C(=O)C=CC5=O)CC4)cc3OC)nc12 (centres unmarked) | hTLR8 (Homo sapiens) | F |

Moving on to another molecule below.
Ask: In the record for C=CCN(C)Cc1cc(OC)c(Cn2cc3nc(N)nc(N[C@H](C)CCC)c3n2)c(OC)c1 , is EC50 less than 1000 nM?
Reply: T

* * *

- target_under_test: hTLR7 (Homo sapiens, UniProt Q9NYK1)
- Construct: host or cells: HEK-Blue hTLR7 cells (HEK293-derived, own knowledge)
- Sequence (Q9NYK1 27-1049): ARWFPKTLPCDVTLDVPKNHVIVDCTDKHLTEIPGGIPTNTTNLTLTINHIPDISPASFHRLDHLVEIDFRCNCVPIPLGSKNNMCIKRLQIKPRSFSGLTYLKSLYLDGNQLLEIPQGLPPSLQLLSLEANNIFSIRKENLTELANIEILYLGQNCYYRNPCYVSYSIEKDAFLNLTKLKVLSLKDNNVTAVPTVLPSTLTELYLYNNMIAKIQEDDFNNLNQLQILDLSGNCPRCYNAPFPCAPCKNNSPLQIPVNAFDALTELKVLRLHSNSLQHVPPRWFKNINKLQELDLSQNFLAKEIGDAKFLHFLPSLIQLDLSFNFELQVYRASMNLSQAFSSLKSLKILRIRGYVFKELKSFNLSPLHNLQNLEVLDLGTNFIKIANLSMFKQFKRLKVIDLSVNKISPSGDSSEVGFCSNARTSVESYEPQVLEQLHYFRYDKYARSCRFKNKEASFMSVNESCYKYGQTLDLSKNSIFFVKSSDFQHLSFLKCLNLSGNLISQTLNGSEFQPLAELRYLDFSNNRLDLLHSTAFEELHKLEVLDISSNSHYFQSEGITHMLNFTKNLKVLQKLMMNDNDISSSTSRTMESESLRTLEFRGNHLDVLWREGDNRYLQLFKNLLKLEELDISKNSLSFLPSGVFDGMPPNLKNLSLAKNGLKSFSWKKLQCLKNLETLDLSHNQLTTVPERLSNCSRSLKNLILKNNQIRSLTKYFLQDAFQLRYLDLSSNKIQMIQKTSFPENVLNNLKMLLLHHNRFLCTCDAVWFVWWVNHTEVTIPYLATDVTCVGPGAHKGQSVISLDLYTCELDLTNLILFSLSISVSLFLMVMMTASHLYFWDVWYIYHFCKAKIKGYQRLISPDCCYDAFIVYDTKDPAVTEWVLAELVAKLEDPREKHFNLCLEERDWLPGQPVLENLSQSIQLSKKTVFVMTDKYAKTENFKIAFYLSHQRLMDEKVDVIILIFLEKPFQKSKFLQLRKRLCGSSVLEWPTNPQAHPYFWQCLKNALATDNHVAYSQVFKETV
- experiment_summary: Human TLR7 Reporter Assay
- Type: cell-based
- experimental_context: HEK-Blue hTLR7 cells, 16 hours, normalized to CL097 (6 μM) and DMSO
EC50 values for the molecules below.
A number alone suffices; assume nM.

| molecule | EC50 / nM |
| --- | --- |
| CCCCNc1nc(N)nc2cn(Cc3ccc(C4CCNC4)cc3)nc12 (centres unmarked) [Compound 198] | 396 |
| CCCCNc1nc(N)nc2cn(Cc3ccccc3OC)nc12 | 665 |
| CCCCNc1nc(N)nc2cn(Cc3ccc(CN4CCNCC4)cc3OC)nc12 [Compound 131] | 680 |

// next item, EC50 requested
Ask: Param item = CCCCNc1nc(N)nc2cn(Cc3c(OC)cc(N)cc3OC)nc12 ; retrieve measured EC50.
Reply: 119

* * *

EC50 values for the molecules below.
- target_under_test: UniProt:Q9NR97
- experiment_summary: Human TLR8 Reporter Assay
- experimental_context: HEK-Blue hTLR8 cells, 16 hours, normalized to tl8-506 (1 μM) and DMSO
A number alone suffices; assume µM.

| record_smiles | target_under_test | EC50 [µM] |
| --- | --- | --- |
| CCCCNc1nc(N)nc2cn(Cc3nc(NCCCN)ccc3OC)nc12 | UniProt:Q9NR97 | 1.01 |

// next item, EC50 requested
Ask: Param item = CCCCNc1nc(N)nc2cn(Cc3ccccc3Cl)nc12 ; retrieve measured EC50.
Reply: 6.54

* * *

EC50 values for the molecules below.
- target_under_test: hTLR7 (Homo sapiens)
- experiment_summary: Human TLR7 Reporter Assay
- experimental_context: HEK-Blue hTLR7 cells, 16 hours, normalized to CL097 (6 μM) and DMSO
A number alone suffices; assume nM.

Study these solved cases before continuing.
| molecule | EC50 (nM) |
| --- | --- |
| CCC[C@@H](CO)Nc1nc(N)nc2cn(Cc3c(OC)cc(CN(C)C)cc3OC)nc12 | 108 |
| CCCCNc1nc(N)nc2cn(Cc3c(OC)ccc(CN4C(=O)C=CC4=O)c3OC)nc12 | 3350 |
| C=CCN(C)Cc1cnc(Cn2cc3nc(N)nc(NCCCC)c3n2)c(OC)c1 | 55.9 |
| CCC[C@@H](CO)Nc1nc(N)nc2cn(Cc3c(OC)cc(C(C)N)cc3OC)nc12 (stereo partly shown) [Compound 222] | 6280 |
| CCCCNc1nc(N)nc2cn(CCCCCCCCN)nc12 | 3040 |

Ask: Param item = CCCCNc1nc(N)nc2cn(Cc3ccc(CN4CC(CNC)C4)cc3OC)nc12 ; retrieve measured EC50.
Reply: 2270

Ask: Param item = C=CCN(C)Cc1cnc(Cn2cc3nc(N)nc(N[C@H](CO)CCC)c3n2)c(OC)c1 ; retrieve measured EC50.
Reply: 382

Ask: Param item = CCCCNc1nc(N)nc2cn(Cc3ccccc3OC(F)F)nc12 ; retrieve measured EC50.
Reply: 226

Ask: Param item = CCCCNc1nc(N)nc2cn(Cc3nccnc3OC)nc12 ; retrieve measured EC50.
Reply: 81.8

Ask: Param item = C=CC(=O)NC[C@H]1CC[C@H](C(=O)N2CCN(c3ccc(Cn4cc5nc(N)nc(NCCCC)c5n4)c(OC)c3)CC2)CC1 ; retrieve measured EC50.
Reply: 112

Ask: Param item = CCCCNc1nc(N)nc2cn(Cc3c(OC)cc(CN4CCN(C(=O)C5CCC(CN6C(=O)CC(SC[C@H](N)C(=O)O)C6=O)CC5)CC4)cc3OC)nc12 (stereo partly shown) ; retrieve measured EC50.
Reply: 2620

Ask: Param item = CCCCNc1nc(N)nc2cn(Cc3ncc(NCCCN)cc3OC)nc12 ; retrieve measured EC50.
Reply: 293

* * *

- target_under_test: hTLR8 (Homo sapiens, UniProt Q9NR97)
- Sequence (Q9NR97 27-1041): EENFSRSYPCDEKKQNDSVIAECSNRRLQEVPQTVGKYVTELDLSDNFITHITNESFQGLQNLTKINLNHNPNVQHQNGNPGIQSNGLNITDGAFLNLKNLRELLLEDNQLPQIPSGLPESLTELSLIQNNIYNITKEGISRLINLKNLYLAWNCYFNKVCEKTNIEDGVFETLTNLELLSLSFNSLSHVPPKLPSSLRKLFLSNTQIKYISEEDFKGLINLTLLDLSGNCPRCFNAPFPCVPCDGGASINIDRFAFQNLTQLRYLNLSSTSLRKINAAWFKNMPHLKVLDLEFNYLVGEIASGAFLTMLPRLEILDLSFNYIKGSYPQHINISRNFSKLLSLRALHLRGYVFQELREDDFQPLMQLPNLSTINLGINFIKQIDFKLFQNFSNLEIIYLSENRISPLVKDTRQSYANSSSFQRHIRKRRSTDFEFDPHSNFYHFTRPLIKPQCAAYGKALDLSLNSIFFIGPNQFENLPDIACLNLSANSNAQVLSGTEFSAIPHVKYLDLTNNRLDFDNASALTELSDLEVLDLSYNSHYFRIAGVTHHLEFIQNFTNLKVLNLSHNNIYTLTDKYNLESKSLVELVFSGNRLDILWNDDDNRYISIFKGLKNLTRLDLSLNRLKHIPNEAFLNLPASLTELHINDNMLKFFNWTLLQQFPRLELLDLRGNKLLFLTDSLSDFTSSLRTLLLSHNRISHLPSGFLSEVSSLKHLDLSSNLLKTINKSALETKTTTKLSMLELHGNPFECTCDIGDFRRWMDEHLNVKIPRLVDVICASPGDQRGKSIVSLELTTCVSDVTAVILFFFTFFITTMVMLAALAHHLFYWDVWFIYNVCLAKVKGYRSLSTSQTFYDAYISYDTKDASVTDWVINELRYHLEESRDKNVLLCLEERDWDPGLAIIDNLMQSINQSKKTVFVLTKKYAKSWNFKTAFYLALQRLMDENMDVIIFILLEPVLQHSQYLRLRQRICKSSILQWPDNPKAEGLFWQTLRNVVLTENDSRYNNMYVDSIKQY
- experiment_summary: Human TLR8 Reporter Assay
- experimental_context: HEK-Blue hTLR8 cells, 16 hours, normalized to tl8-506 (1 μM) and DMSO
EC50 values for the compounds below.

Study these solved cases before continuing.
| compound | endpoint | endpoint_value |
| --- | --- | --- |
| CCCCNc1nc(N)nc2cn(Cc3ccc(CCN)cc3OC)nc12 | EC50 | 0.942 µM |
| CCCCC(CCC)Nc1nc(N)nc2cn(Cc3ccccc3OC)nc12 (stereo not drawn) [Compound 18] | EC50 | > 29.9 µM |

// next item, EC50 requested
Ask: Param item = CCCCC(CCO)Nc1nc(N)nc2cn(Cc3ccccc3OC)nc12 (stereo not drawn) [Compound 16] ; retrieve measured EC50.
Reply: > 9.98 µM
